Reference source: ChEMBL document CHEMBL6087417

Assay: Cytotoxicity against PBMC (unknown origin) assessed as cell survival at 20 uM relative to control
Assay type: toxicity, cell-based
Conditions: read-out: Survival
MEASURED PROPERTY: viability at 20 µM (%)
Answer in %, number only, no unit symbol.

Q: Value lookup for viability at 20 µM; key = `COc1ccc(Cc2cnc(NC(=O)N3CCN(c4ccc(Cl)cc4)CC3)s2)cc1`
Ans: 91.7
